Listed next: entries and their corresponding TGI.
System: NCI-H226 lung
Assay: NCI tumour cell line growth inhibition, 48 h

COMPOUND	TGI
Cc1c2cnccc2c(C)c2c1c1cc(C#N)ccc1n2C	0.379 µM
CN1CCN(C(=S)N(C)C(=O)c2ccco2)CC1	> 100 µM
O=C1[C@H](O)[C@@H]2C(O)O[C@H]3[C@@H]2N1C[C@H]3[Si](c1ccccc1)(c1ccccc1)c1ccccc1 (stereo not given in full)	> 100 µM
Cn1c(=O)c2c(nc3n(CC(O)CCl)c(=O)ccn23)n(C)c1=O (stereo not given)	> 100 µM
COc1ccc(C2=Nn3c(nnc3-c3cc(Cl)cc(Cl)c3Cl)SC2)cc1	> 100 µM
O=C(O)CCc1nc2c(n1-c1ccccc1)C(=O)c1ccccc1C2=O	> 100 µM
COc1cc2c(c3c1c(=O)c1ccccc1n3C)C=CC1(CCCC1)O2	37.1 µM
CCNCCNC(=O)c1ccc(I)cc1	> 100 µM
CC(=O)NC1C(OCc2ccccc2)OC(CO)C(O)C1OCC(=O)N1CCCC1C(=O)N[C@@H](CCC(=O)NCCCCNc1c2ccccc2nc2cccc([N+](=O)[O-])c12)C(N)=O (stereo not given in full)	> 100 µM
CC1=NNC(=O)C1C1C(=O)NN=C(c2c[nH]c3ccccc23)C1Br (stereo not given)	> 100 µM
CCC/C(Cl)=N\OC(=O)Nc1ccc(F)cc1	43.4 µM
CC(C)/C(Cl)=N/OC(=O)Nc1ccc(Br)cc1	30.5 µM
C/C(=N/O)c1cccc(Nc2cc(-n3nnc4ccccc43)nc3ccccc23)c1	47.3 µM
Cc1c(/C=N/NC(=O)c2ccccc2O)c(=O)n(-c2ccccc2)n1C	> 100 µM
COC(=O)/C(=N\NC(C)(C)C)C(C(=O)OC)C(=O)C(=O)Nc1cc(Cl)ccc1Cl (stereo not given)	> 100 µM
IC[P+]1(c2ccccc2)CCCC1	89 µM
C=CCC1(C#N)C(=S)NC2=C(C(=O)CC(C)(C)C2)C1c1ccccc1 (stereo not given)	> 100 µM
O=C(Nc1cccc(Cl)c1)Nn1cnnc1	> 100 µM
O=C(O)CC(Cc1ccccc1Cl)C(=O)O (stereo not given)	> 100 µM
CCc1c2c(nc3ccc(OCc4ccc(B(O)O)cc4)cc13)-c1cc3c(c(=O)n1C2)COC(=O)[C@]3(O)CC	0.339 µM
